Where these numbers come from: patent US20240336909

Target: AxCT mask27 EGFR EH104 L062 version 1
Catalogue of proteins with associated Percent cleavage
assayEndpoint: Percent cleavage (%)

protein	units	measurement
Matriptase (protein) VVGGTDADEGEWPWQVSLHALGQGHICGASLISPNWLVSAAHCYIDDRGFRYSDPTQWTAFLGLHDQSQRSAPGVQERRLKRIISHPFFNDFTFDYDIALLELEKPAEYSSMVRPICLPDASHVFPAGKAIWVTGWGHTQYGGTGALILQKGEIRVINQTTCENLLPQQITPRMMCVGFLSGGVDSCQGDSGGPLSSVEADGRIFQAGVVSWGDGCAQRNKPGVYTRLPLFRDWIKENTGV	%	52
MMP-7 (protein) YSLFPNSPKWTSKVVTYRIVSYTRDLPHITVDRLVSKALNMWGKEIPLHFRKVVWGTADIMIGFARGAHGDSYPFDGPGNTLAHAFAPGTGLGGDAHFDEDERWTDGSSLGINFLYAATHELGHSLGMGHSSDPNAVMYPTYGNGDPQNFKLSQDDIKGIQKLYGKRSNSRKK	%	25
Cathepsin G (protein) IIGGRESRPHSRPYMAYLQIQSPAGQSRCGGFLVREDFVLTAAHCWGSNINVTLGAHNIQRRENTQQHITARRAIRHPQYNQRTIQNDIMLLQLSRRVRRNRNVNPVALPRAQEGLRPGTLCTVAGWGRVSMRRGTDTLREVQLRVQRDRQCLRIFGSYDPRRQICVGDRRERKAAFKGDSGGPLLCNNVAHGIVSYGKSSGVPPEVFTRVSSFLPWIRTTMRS	%	0
Neutrophil Elastase (protein) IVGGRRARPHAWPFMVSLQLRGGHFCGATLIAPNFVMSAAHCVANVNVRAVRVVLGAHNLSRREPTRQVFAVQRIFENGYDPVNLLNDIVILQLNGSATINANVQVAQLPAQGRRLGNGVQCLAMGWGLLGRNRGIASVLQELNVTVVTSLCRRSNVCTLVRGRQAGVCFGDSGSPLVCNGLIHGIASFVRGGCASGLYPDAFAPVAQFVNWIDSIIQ	%	8
MMP-12 (protein) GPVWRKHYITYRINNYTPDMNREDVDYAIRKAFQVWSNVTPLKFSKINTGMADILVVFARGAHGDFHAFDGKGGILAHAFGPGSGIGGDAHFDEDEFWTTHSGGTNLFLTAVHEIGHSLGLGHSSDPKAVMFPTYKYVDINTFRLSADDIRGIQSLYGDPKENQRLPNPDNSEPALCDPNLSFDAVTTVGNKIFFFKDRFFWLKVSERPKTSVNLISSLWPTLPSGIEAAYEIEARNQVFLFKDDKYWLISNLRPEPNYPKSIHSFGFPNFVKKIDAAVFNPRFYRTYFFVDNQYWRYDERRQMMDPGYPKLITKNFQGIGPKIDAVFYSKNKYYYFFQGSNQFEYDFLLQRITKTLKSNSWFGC	%	51
